biological target: UniProtKB C7C422; test: Enzyme activity: determination of IC50, fluorescence assay with CCF2-FA substrate; format: biochemical; details: NDM-1 enzyme 1 pM, CCF2-FA 1.25 μM, 2 hours at 25° C.; read-out: NDM1 IC50
Sequence (C7C422 29-270, looked up, species assumed): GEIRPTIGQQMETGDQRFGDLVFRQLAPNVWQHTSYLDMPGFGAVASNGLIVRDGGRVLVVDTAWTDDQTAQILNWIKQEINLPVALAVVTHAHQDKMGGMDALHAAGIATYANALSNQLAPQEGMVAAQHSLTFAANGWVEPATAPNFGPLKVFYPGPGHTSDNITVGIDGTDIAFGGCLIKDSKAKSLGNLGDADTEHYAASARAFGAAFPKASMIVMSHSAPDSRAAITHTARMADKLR
RESULT TYPE: IC50 (nM)
Express the result in nM but write the number alone.

1) CCC[C@H](C(=O)O)[C@H](Cc1cccc(N2CCC[C@@H](N)C2)c1)c1nn[nH]n1	870
2) CCC[C@H](C(=O)[O-])[C@H](Cc1ccc(C[N+](C)(C)C)cc1)c1nnn[nH]1	869
3) CC(C)C[C@H](C(=O)O)[C@H](Cc1ccc(Oc2ccccc2)nc1)c1nn[nH]n1	24
4) CC(C)C[C@H](C(=O)O)[C@H](Cc1ccc(N2CC(C)(CN)C2)nc1)c1nnn[nH]1	1100
5) CCC[C@H](C(=O)O)[C@H](Cc1ccc(C2CCN(C=N)C2)cc1)c1nnn[nH]1 (stereo partly shown)	121
6) CC(C)C[C@H](C(=O)O)[C@H](Cc1ccc(N2CCC(CN)C2)nc1)c1nnn[nH]1 (stereo partly shown)	670

QUERY: Answer with IC50 of CC(C)C[C@H](C(=O)O)[C@H](Cc1ccc(C2=CCNC2)c(F)c1)c1nn[nH]n1 [Example 452, 2,2,2-trifluoroacetate] measured for UniProtKB C7C422.
RESULT: 93.1

---

target: VIM-1 (Pseudomonas aeruginosa); assay: Enzyme activity: determination of IC50, fluorescence assay with CCF2-FA substrate; assay type: biochemical; conditions: enzyme 30 pM, CCF2-FA 1.25 μM, 2 hours at 25° C.; read-out: VIM1 IC50
This section presents molecules with their documented pIC50 values.
Kindly note that pIC50 refers to -log10 of the concentration in mol/L and answer with the value alone.

1. CCC[C@H](C(=O)O)[C@H](Cc1cccc2sc(N)nc12)c1nn[nH]n1	8.14

QUERY: Give the measured pIC50 for CCC[C@H](C(=O)O)[C@H](Cc1ccc(-c2ccc(N)nc2)cn1)c1nnn[nH]1
RESULT: 6.85

QUERY: Give the measured pIC50 for CC(C)[C@H](C(=O)O)[C@H](Cc1ccc(N2CCC[C@H]2CO)nc1)c1nnn[nH]1
RESULT: 7.47

QUERY: Give the measured pIC50 for CCCC[C@@H](C(=O)O)[C@@H](Cc1ccc(-c2cn[nH]c2)cc1)c1nn[nH]n1
RESULT: 7.22

QUERY: Give the measured pIC50 for CC(C)C[C@H](C(=O)O)[C@H](Cc1ccc(C#N)cc1)c1nnn[nH]1
RESULT: 8.85

QUERY: Give the measured pIC50 for O=C(O)[C@@H](C1CCOC1)[C@H](Cc1ccc(C2CCNC2)cc1)c1nnn[nH]1 (some centres unmarked)
RESULT: 7.52

QUERY: Give the measured pIC50 for CCC[C@H](C(=O)O)[C@H](Cc1ccc(NC(C)CN(C)C)cc1)c1nn[nH]n1 (some centres unmarked)
RESULT: 7.09

QUERY: Give the measured pIC50 for CC(C)[C@H](C(=O)O)[C@H](Cc1cnc(N)nc1)c1nnn[nH]1
RESULT: 7.29

---

This section presents compounds with their documented pIC50 values.
target: UniProt:P52699; assay: Enzyme activity: determination of IC50, fluorescence assay with CCF2-FA substrate; type: biochemical; conditions: enzyme 2 pM, CCF2-FA 1.25 μM, 2 hours at 25° C.; read-out: IMP1 IC50
Sequence (P52699 19-246, looked up, species assumed): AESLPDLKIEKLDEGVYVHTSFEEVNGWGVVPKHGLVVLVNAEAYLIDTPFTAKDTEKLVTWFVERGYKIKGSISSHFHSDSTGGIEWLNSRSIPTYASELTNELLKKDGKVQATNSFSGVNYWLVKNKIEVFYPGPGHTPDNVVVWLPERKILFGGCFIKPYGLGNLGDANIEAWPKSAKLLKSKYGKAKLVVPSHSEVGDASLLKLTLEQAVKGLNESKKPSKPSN
Kindly note that pIC50 refers to -log10 of the concentration in mol/L and answer with the value alone.

The following compounds have reported results that may help.
1. CC(C)CCC[C@H](C(=O)O)[C@H](Cc1ccccc1)c1nnn[nH]1	6.55
2. CCC[C@H](C(=O)O)[C@H](Cc1cccc(C(N)=O)c1)c1nn[nH]n1	5.80
3. CCC[C@H](C(=O)O)[C@H](Cc1ccc(N2CCN(c3ccncc3)CC2)cc1)c1nn[nH]n1	6.42

Field: next compound
QUERY: Give the measured pIC50 for CCC[C@H](C(=O)O)[C@H](Cc1ccc(NCCN2CCCC(O)C2)cc1)c1nn[nH]n1 (stereo partly shown)
RESULT: 5.80

---

This section presents compounds with their documented log10 IC50 values.
molecular target: VIM-1 (Pseudomonas aeruginosa, UniProt A0A0F7KYQ8); experiment: Enzyme activity: determination of IC50, fluorescence assay with CCF2-FA substrate; assay type: biochemical; details: VIM-1 enzyme 30 pM, CCF2-FA 1.25 μM, 2 hours at 25° C.; read-out: VIM1 IC50
A value of 2 here means IC50 of 100 in nM, since values are log10.

The following compounds have reported results that may help.
1) CC(C)C[C@H](C(=O)O)[C@H](Cc1ccc(N2CC(O)(C(F)(F)F)C2)nc1)c1nnn[nH]1 [Example 338]	1.58
2) CCC[C@H](C(=O)O)[C@H](Cc1cccc(-c2ccc(C(=O)NC)cc2)c1)c1nn[nH]n1 [Example 344]	0.23
3) CCC[C@H](C(=O)O)[C@H](Cc1ccc2nonc2c1)c1nnn[nH]1 [Example 273]	0.28
4) CC(C)C[C@H](C(=O)O)[C@H](Cc1ccc(Oc2ccc(CC(C)(C)N)cc2)nc1)c1nn[nH]n1 [Example 386]	2.00

QUERY: Answer with log10 IC50 of CCC[C@H](C(=O)O)C(Cc1cccc(C(F)(F)F)c1)c1nnn[nH]1 (stereo in doubt) [Example 267] measured for VIM-1 (Pseudomonas aeruginosa, UniProt A0A0F7KYQ8).
RESULT: -0.07

QUERY: Answer with log10 IC50 of CC(C)(C)[C@H](C(=O)O)[C@H](Cc1ccc(NC(=N)N)nc1)c1nnn[nH]1 [Example 422] measured for VIM-1 (Pseudomonas aeruginosa, UniProt A0A0F7KYQ8).
RESULT: 0.60

QUERY: Answer with log10 IC50 of CC(C)C[C@H](C(=O)O)[C@H](Cc1ccc(COCC2CCNCC2)c(F)c1)c1nn[nH]n1.O=C(O)C(F)(F)F [Example 442, 2,2,2-trifluoroacetate] measured for VIM-1 (Pseudomonas aeruginosa, UniProt A0A0F7KYQ8).
RESULT: 0.94

---

tested on: Klebsiella pneumoniae expressing VIM-1 (IHMA599644); experiment: Antibiotic potentiation activity: synergistic concentration (MITC95) with imipenem, growth by OD600; format: cell-based; settings: 95% inhibition of bacterial growth, strain IHMA599644
Classification field: criterion met = VIM1 KP599644 MITC95 at or over 50 µM; criterion not met = VIM1 KP599644 MITC95 under 50 µM.

Would you please look over these solved cases?
1. CCC[C@H](C(=O)O)[C@H](Cc1cccc2sc(N)nc12)c1nn[nH]n1 [Example 155]	criterion not met
2. CC(C)[C@H](C(=O)O)[C@H](Cc1ccc(Br)nc1)c1nnn[nH]1 [Example 91]	criterion not met
3. CC(C)C[C@H](C(=O)O)[C@H](Cc1ccc(-c2ccc(CO)cc2)cn1)c1nn[nH]n1 [Example 171]	criterion met

Could you now consider this next molecule?
QUERY: In plain terms: is recorded VIM1 KP599644 MITC95 at least 50 µM for CCC[C@H](C(=O)O)[C@H](Cc1ccc(-c2nnn[nH]2)cc1)c1nn[nH]n1 [Example 44] ?
RESULT: criterion met

---

tested on: Klebsiella pneumoniae expressing VIM-1 (IHMA599644); assay: Antibiotic potentiation activity: synergistic concentration (MITC95) with imipenem, growth by OD600; assay type: cell-based; conditions: 95% inhibition of bacterial growth, strain IHMA599644
Classification field: met = VIM1 KP599644 MITC95 at or over 40 µM; not met = VIM1 KP599644 MITC95 under 40 µM.

Would you please look over these solved cases?
1. CCC[C@H](C(=O)O)[C@H](Cc1ccc(-c2ccc3ncnn3c2)cc1)c1nnn[nH]1	not met
2. CC(C)[C@H](C(=O)O)[C@H](Cc1ccc(C2CCNC2)c(F)c1)c1nnn[nH]1 (some centres unmarked)	not met
3. O=C(O)[C@@H](CCCC1CCNCC1)[C@H](Cc1ccccc1)c1nnn[nH]1	met
4. CCC[C@H](C(=O)O)[C@H](Cc1ccc(C2=CCNC2)nc1)c1nnn[nH]1	not met
5. O=C(O)[C@@H](C1CCOC1)[C@H](Cc1ccc(C2=CCNC2)cc1)c1nnn[nH]1 (some centres unmarked)	not met

QUERY: In plain terms: is recorded VIM1 KP599644 MITC95 at least 40 µM for CC(C)C[C@H](C(=O)O)[C@H](Cc1ccc(C2CCNCC2)cc1)c1nnn[nH]1 ?
RESULT: not met

QUERY: In plain terms: is recorded VIM1 KP599644 MITC95 at least 40 µM for CCC[C@H](C(=O)O)[C@H](Cc1ccc(-c2ccc3ccnc(C#N)c3c2)nc1)c1nnn[nH]1 ?
RESULT: met

QUERY: In plain terms: is recorded VIM1 KP599644 MITC95 at least 40 µM for CC(C)C[C@H](C(=O)O)[C@H](Cc1ccc(Br)c(F)c1)c1nnn[nH]1 ?
RESULT: not met
